- tested target: Aldehyde dehydrogenase 1A1 (Homo sapiens) (UniProt P00352)
- test protocol: qHTS for Inhibitors of the Aldehyde Dehydrogenase Family (ALDH1A1) Confirmatory screens (AID 2061316); note: nearly all actives have a fitted effect of over 65% in size
- measurement parameters: ALDH inhibition qHTS; series mostly up to 47.3 µM
Records with an inconclusive call do not appear. Calls of active or inactive are those of the source. Calls come from the whole dose curve; as a rule, active = well fitted inhibition curve with a large enough effect; inconclusive = small, poorly fitted or top-dose-only effect; inactive = no such curve, though single readings can be large or run the other way. Positions of bridges follow the written chain, without caps; N, C: chain ends. Non-standard residues stand in square brackets, D forms with d. Residues, ends and D or L forms follow the SMILES beside them. *: point of attachment. X1 = CCC(C)C(N)C1=NC(C(=O)*)CS1; dOrn = NCCC[C@@H](N)C(=O)O
Lab note: assign the record to one of label 1 = active, label 0 = inactive

Task: Called result for CC(C)(C)c1ccc(SC2=NS(=O)(=O)c3ccccc32)cc1
Result: label 0

Task: Called result for O=C1Nc2ccccc2/C1=C\c1cc(F)c(O)c(F)c1
Result: label 1

Task: Called result for O=C(O)c1cccc(-n2[nH]c(-c3ccccc3)cc2=O)c1
Result: label 1

Task: Called result for Fc1c(-c2ccc3ncnc(NCc4cccs4)c3c2)ccc2c1OCO2
Result: label 0

Task: Called result for COc1ccc(Nc2ncc(C(=O)N3CCN(c4ccc(F)cc4)CC3)c3ccccc23)cc1
Result: label 0

Task: Called result for N#Cc1nc(NCCO)nc(Nc2ccccc2)n1
Result: label 0

Task: Called result for Fc1ccc(N2CCN(CCC3OCCc4ccccc43)CC2)cc1 (stereo not drawn)
Result: label 0

Task: Called result for CCC(C)C(N)C1=NC(C(=O)N[C@@H](CC(C)C)C(=O)N[C@H](CCC(=O)O)C(=O)N[C@H](C(=O)N[C@H]2CCCCNC(=O)[C@H](CC(N)=O)NC(=O)[C@@H](CC(=O)O)NC(=O)[C@H](Cc3cnc[nH]3)NC(=O)[C@@H](Cc3ccccc3)NC(=O)[C@H]([C@@H](C)CC)NC(=O)[C@@H](CCCN)NC2=O)[C@@H](C)CC)CS1 (stereo partly drawn) (X1-L[dE]IK[dOrn]I[dF]H[dD]N; lactam 4-C)
Result: label 1

Task: Called result for CCOc1cc(N2CCC(O)CC2)ccc1Nc1ncc2c(n1)N(C1CCCC1)CCC(=O)N2C
Result: label 0

Task: Called result for NC(=S)c1ccc[n+]([C@@H]2O[C@@H](COP(=O)([O-])OP(=O)(O)OC[C@H]3O[C@@H](n4cnc5c(N)ncnc54)[C@H](OP(=O)(O)O)[C@@H]3O)C(O)C2O)c1 (stereo partly drawn)
Result: label 1

* * *

- test protocol: BET inhibitor-based combinations targeting novel dependencies in MECOM-rearranged (r) AML: AML-191 cell line (AID 2202236; note: nearly all actives have a fitted effect of over 35% in size)
- measurement parameters: AML-191 viability, CellTiter-Glo luminescence, 48 h; series mostly up to 46 µM
Inconclusive results are not listed. Calls of active or inactive are those of the source. The call rests on the fitted dose curve; in most records, active means well fitted inhibition curve with a large enough effect; inconclusive means small, poorly fitted or top-dose-only effect; inactive means flat fitted curve, though single readings scatter.
Lab note: assign the record to one of 1 (active), 0 (inactive)

The examples below pair each entry with its known result.
- compound: "CC(C)n1cnc2c(NCCc3ccc(O)cc3)nc(-c3csc4ccccc34)nc21"
  category: 1
- compound: "NC[C@H](O)c1ccc(O)c(O)c1"
  category: 0
- compound: "COc1ccc(C2(C#N)CCC(C(=O)O)CC2)cc1OC1CCCC1 (stereo not given)"
  category: 0
- compound: "Cc1cc(Nc2cc(N3CCN(C)CC3)nc(/C=C/c3ccccc3)n2)n[nH]1"
  category: 1
- compound: "Cc1ccc2nc(NC(=O)CSc3nc4c(c(=O)n3-c3ccccc3)SCC4)sc2c1"
  category: 0

Task: Called result for NCCCC(O)(P(=O)(O)O)P(=O)(O)O
Result: 0

Task: Called result for O=P(O)(O)C(O)(Cc1cccnc1)P(=O)(O)O
Result: 0

Task: Called result for CN(C)CCc1c[nH]c2ccc(CS(=O)(=O)N3CCCC3)cc12
Result: 0

Task: Called result for CCOc1cc(C(C)(C)C)ccc1C1=N[C@@](C)(c2ccc(Cl)cc2)[C@@](C)(c2ccc(Cl)cc2)N1C(=O)N1CCN(CC(=O)N2CCOCC2)CC1
Result: 1

Task: Called result for CC#CCn1c(N2CCC[C@@H](N)C2)nc2c1c(=O)n(Cc1nc(C)c3ccccc3n1)c(=O)n2C
Result: 0
